Value source: ChEMBL document CHEMBL2407018

Biological target: NADPH oxidase 2 (Homo sapiens) (UniProt P04839)
Sequence (whole entry): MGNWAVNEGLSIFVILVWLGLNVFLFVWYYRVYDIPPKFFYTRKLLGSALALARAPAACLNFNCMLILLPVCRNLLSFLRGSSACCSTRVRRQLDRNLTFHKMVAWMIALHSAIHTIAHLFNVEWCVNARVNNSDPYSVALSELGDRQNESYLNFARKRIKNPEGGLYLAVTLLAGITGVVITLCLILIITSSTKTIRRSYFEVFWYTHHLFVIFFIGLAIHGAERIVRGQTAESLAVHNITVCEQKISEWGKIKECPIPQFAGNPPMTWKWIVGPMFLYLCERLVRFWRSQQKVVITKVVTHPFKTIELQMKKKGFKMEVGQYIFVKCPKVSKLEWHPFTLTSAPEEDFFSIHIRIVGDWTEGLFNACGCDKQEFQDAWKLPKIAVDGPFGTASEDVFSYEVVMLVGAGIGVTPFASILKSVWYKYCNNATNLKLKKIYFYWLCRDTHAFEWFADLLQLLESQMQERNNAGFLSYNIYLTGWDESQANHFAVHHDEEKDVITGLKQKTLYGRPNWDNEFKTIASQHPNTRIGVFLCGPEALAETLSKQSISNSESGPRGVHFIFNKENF
Assay: Inhibition of NOX2 in human THP1 cells assessed as downregulation of TPA-induced CD14 mRNA expression at 20 uM incubated for 1 hr prior to TPA challenge measured after 24 hrs by RT-PCR analysis
Type: cell-based
Settings: THP-1
Active and inactive are the calls of the source. The calls are words filed in the database; no cut-off is given here.
Classes used: 1 (yes) for active, 0 (no) for inactive

chem_smiles=O=c1cc(-c2ccccc2)oc2cc(O)cc(O)c12 class_assignment="1 (yes)"
chem_smiles=O=c1cc(-c2ccc(O)cc2)oc2cc(O)cc(O)c12 class_assignment="1 (yes)"
chem_smiles=O=c1cc(-c2ccc(O)c(O)c2)oc2cc(O)cc(O)c12 class_assignment="1 (yes)"
chem_smiles=O=c1cc(-c2cc(O)c(O)c(O)c2)oc2cc(O)cc(O)c12 class_assignment="0 (no)"

###

Target: NADPH oxidase 2 (Homo sapiens) (UniProt P04839)
Assay: Inhibition of NOX2 in human THP1 cells assessed as downregulation of TPA-induced CD36 mRNA expression at 20 uM incubated for 1 hr prior to TPA challenge measured after 24 hrs by RT-PCR analysis
Type: cell-based
Settings: THP-1
Activity calls are given as the source filed them. The rule behind the calls is not given here.
Outcome codes: active, inactive

chem_smiles=O=c1cc(-c2ccc(O)c(O)c2)oc2cc(O)cc(O)c12 class_assignment=active
chem_smiles=O=c1cc(-c2ccc(O)cc2)oc2cc(O)cc(O)c12 class_assignment=active
chem_smiles=O=c1cc(-c2cc(O)c(O)c(O)c2)oc2cc(O)cc(O)c12 class_assignment=inactive
chem_smiles=O=c1cc(-c2ccccc2)oc2cc(O)cc(O)c12 class_assignment=active

###

Molecular target: NADPH oxidase 2 (Homo sapiens) (UniProt P04839)
Assay: Inhibition of NOX2 in human THP1 cells assessed as downregulation of TPA-induced CD11b mRNA expression at 20 uM incubated for 1 hr prior to TPA challenge measured after 24 hrs by RT-PCR analysis
Format: cell-based
Details: THP-1
Activity calls are given as the source filed them. No cut-off for these calls is given here.
Outcomes: active, inactive

chem_smiles=O=c1cc(-c2ccc(O)cc2)oc2cc(O)cc(O)c12 class_assignment=active
chem_smiles=O=c1cc(-c2ccccc2)oc2cc(O)cc(O)c12 class_assignment=active
chem_smiles=O=c1cc(-c2ccc(O)c(O)c2)oc2cc(O)cc(O)c12 class_assignment=active
chem_smiles=O=c1cc(-c2cc(O)c(O)c(O)c2)oc2cc(O)cc(O)c12 class_assignment=inactive
